B1: CDC25B (parent)
chain: FVDILESDLKDDDAVPPGMESLIS

Variants of: B1
Assay: protein stability index of a GFP-peptide fusion (GPS, HEK-293T) (PSI 1-6); higher = more stable;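 further: lentivirally expressed fusions sorted by FACS into six bins by GFP to DsRed ratio, PSI derived from sequencing read proportions per bin multiplied by bin number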
Settings: c terminus: a fixed tail appended
Please respond with reported protein stability index for every item in the list.
Give bare numbers.

# mutation-id, protein stability index
measured = [
    ("D13E", 2.95),
    ("I23C", 2.93),
    ("L9A", 3.09),
]

Provide each entry's protein stability index from the list below.
1. P16G
2. M19H

3.02
2.89

Provide each entry's protein stability index from the list below.
1. S21P
2. K10T
3. D13M
4. P17G

1: 3.02; 2: 3.46; 3: 2.33; 4: 3.25
